A collection of compounds and their measured pIC50
- experimental target: CDK2/CyclinE1 (Homo sapiens (Human), UniProt P24941)
- method: CDK2 kinase assay (TR-FRET)
- protocol conditions: CDK2/CyclinE1 0.5 nM, ATP 50 μM
Convention used: pIC50 is expressed as -log10 of the molar concentration.

Worked set:
{"compound": "CC(C)NC(=O)O[C@@H]1CC[C@H](C2=CC(NC(=O)[C@H]3C[C@@H]3[C@@H](C)O)=NC2)C1", "pIC50": 8.28}
{"compound": "C#C[C@H]1C[C@@H]1C(=O)Nc1cc([C@@H]2CC[C@H](OC(=O)NC3(C)COC3)C2)[nH]n1", "pIC50": 8.96}
{"compound": "CC(C)NC(=O)O[C@@H]1CC[C@H](c2cc(NC(=O)C3CC34CCOC4)n[nH]2)C1 (stereo partly drawn) [Compound 174]", "pIC50": 7.21}
{"compound": "Cn1nc(C2CC2)cc1C(=O)Nc1cc([C@H]2CC[C@@H](OC(=O)NC3COC4(CCC4)C3)C2)[nH]n1 (single isomer, unassigned) [Compound 48]", "pIC50": 7.97}
{"compound": "Cc1c(C2CC2C(=O)Nc2cc([C@H]3CC[C@@H](OC(=O)NC4(C)CC4)C3)[nH]n2)cnn1C (single isomer, unassigned) [Compound 206]", "pIC50": 9.10}
{"compound": "CO[C@H]1CC[C@H](C(=O)Nc2cc([C@H]3CC[C@@H](OC(=O)NC(C)C)C3)[nH]n2)CC1", "pIC50": 7.75}

INPUT: Print CDK2/CyclinE1 (Homo sapiens (Human), UniProt P24941) pIC50 for CC1(NC(=O)O[C@@H]2CC[C@H](c3cc(NC(=O)C4CC4C#N)n[nH]3)C2)CC1 (single isomer, unassigned) [Compound 212] .
OUTPUT: 8.68

INPUT: Lab note: CDK2/CyclinE1 (Homo sapiens (Human), UniProt P24941) assay, enter pIC50 for `C#C[C@H]1C[C@@H]1C(=O)Nc1cc([C@H]2C[C@@H](OC(=O)NC(C)(C)CC)CO2)[nH]n1` here
OUTPUT: 9.22

INPUT: System CDK2/CyclinE1 (Homo sapiens (Human), UniProt P24941). Read-out pIC50. Item CC1(NC(=O)OC2COC(c3cc(NC(=O)Cc4cc(F)cc(F)c4)n[nH]3)C2)CCOC1 (stereo not drawn) [Compound 53] . Report value.
OUTPUT: 8.68

* * *

- experimental target: CDK2/CyclinE1 (Homo sapiens (Human))
- method: CDK2 kinase assay (TR-FRET)
- protocol conditions: CDK2/CyclinE1 0.5 nM, ATP 50 μM
- Experimental: The purpose of these assays is to evaluate the inhibition of small molecule inhibitors by using TR-FRET assay. Compound Preparation. Dissslove the compounds into DMSO solution to make 10 mM DMSO stock. […] Inhibition rate (IR) of the tested compounds was determined by the following formula: IR (%)=(average High control−compound well)/(average High control−average Low control)*100%. […]
IC50: recorded values
A number alone suffices; assume nM.

{"molecule": "Cn1nccc1C(=O)Nc1cc([C@H]2C[C@@H](OC(=O)NC3(CF)CCC3)CO2)[nH]n1", "unit label": "nM", "IC50": 1.4}
{"molecule": "CC(C)NC(=O)O[C@@H]1CC[C@H](c2cc(NC(=O)C3[C@H]4COC[C@@H]34)n[nH]2)C1 (stereo partly drawn)", "unit label": "nM", "IC50": 54.5}

Please examine the following record next.
INPUT: Provide CDK2/CyclinE1 (Homo sapiens (Human)) IC50 reading for `COC[C@H]1CCN(C(=O)Nc2cc([C@H]3CC[C@@H](OC(=O)NC(C)C)C3)[nH]n2)C1` .
OUTPUT: 265

* * *

- experimental target: CDK2/CyclinE1 (Homo sapiens (Human))
- method: CDK2 kinase assay (TR-FRET)
- protocol conditions: CDK2/CyclinE1 0.5 nM, ATP 50 μM
Quick reference for IC50 among some compounds
Kindly provide the numeric value in nM only, without the unit symbol.

INPUT: Return value of IC50 for input `COC[C@H]1C[C@@H]1C(=O)Nc1cc([C@H]2CC[C@@H](OC(=O)NC34CC(F)(C3)C4)C2)[nH]n1` , no commentary.
OUTPUT: 1.3

INPUT: Annotate the compound `COCc1cc(C(=O)Nc2cc([C@H]3C[C@@H]4[C@H](C3)[C@H]4C(=O)NC(C)C)[nH]n2)n(C)n1` with its measured IC50.
OUTPUT: 18.8

INPUT: Input `CC(C)NC(=O)O[C@H]1CO[C@@H](c2cc(NC(=O)c3cc(C(F)F)nn3C)n[nH]2)C1` , output reported IC50.
OUTPUT: 4.1

INPUT: Provide IC50 value for the following compound: CC(C)NC(=O)O[C@@H]1CC[C@H](c2cc(NC(=O)[C@H]3CCN(C(=O)C(C)C)C3)n[nH]2)C1 [Compound 31]
OUTPUT: 8.1

INPUT: Quickly give me recorded IC50 for `Cc1cc(C(=O)Nc2cc([C@H]3C[C@@H](OC(=O)NC(C)C)CO3)[nH]n2)n(C)n1`
OUTPUT: 5.7

INPUT: Tell me measured IC50 for Cn1nc(C2CC2)cc1C(=O)Nc1cc([C@H]2CC[C@@H](OC(=O)NC3COC4(CCC4)C3)C2)[nH]n1 (single isomer, unassigned) [Compound 47] please.
OUTPUT: 64

INPUT: Entry `COCc1cc(C(=O)Nc2cc([C@H]3CC[C@@H](OC(=O)N[C@H]4C[C@@]5(CCOC5)C4)C3)[nH]n2)n(C)n1` needs its IC50 filled in; supply it.
OUTPUT: 4.6

INPUT: Using the record for CC(C)NC(=O)O[C@@H]1CC[C@H](c2cc(NC(=O)C3CC3C#N)n[nH]2)C1 (some centres unmarked) [Compound 87] , state its measured IC50.
OUTPUT: 3.6
